- System: 26S proteasome (yeast, GFP-tagged, ATP-dependent disassembly)
- Protocol text: inhibitors of ATP-driven 26S proteasome dissociation, primary screen, biochemical, bead-based flow cytometry, GFP-tagged proteasome (AID 751);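 further: plate controls were ATP control with full disassembly for no effect and ATP-gamma-S intact proteasomes for full effect; higher percent means more bead fluorescence retained so stronger block of disassembly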
- Assay conditions: anti-FLAG beads, hits give high values, concentration not given here
The campaign covered roughly 24,000 compounds. About 40 (0.2%) were called active. The full list was thinned out, with actives kept by preference.
Each record here notes measured inhibition of disassembly.
Use % as the unit, but write only the number.

Reference set (10 entries):
INSERT INTO measurements (compound, units_of_measure, measured) VALUES
  ('Brc1cnc(N2CCCC2)nc1N1CCCCC1', '%', -0.98),
  ('CCn1c(SCC(=O)Nc2nccs2)nnc1-c1ccncc1', '%', 1.46),
  ('CCOC(=O)Cc1csc(NC(=O)CN(C)S(=O)(=O)c2ccc3c(c2)CCC(=O)N3)n1', '%', 0.365),
  ('COc1cccc(Nc2nnc(SCC(=O)N3CC(C)OC(C)C3)s2)c1 (centres undefined)', '%', -3.96),
  ('CCOC(=O)C1CCN(C(=O)Cc2c(C(=O)O)[nH]c3ccccc23)CC1', '%', 1.78),
  ('Nc1ccc(-n2nncc2-c2ccco2)cc1', '%', -0.06),
  ('CCOc1cc2[nH]c(=S)n(CCCN3CCCC3=O)c(=O)c2cc1OCC', '%', -0.66),
  ('COc1ccc(N2C(=O)C3CCCN3C2c2cccc(OC)c2)cc1 (centres undefined)', '%', 0.89),
  ('COC(=O)c1ccccc1NC(=O)c1cncc(Br)c1', '%', 1.29),
  ('CCOC(=O)N1CCC(NC(=O)CN2C(=O)COc3ccc(C(C)(C)C)cc32)CC1', '%', -0.61);

// query Item Cc1ccc(S(=O)(=O)N(C)CC(=O)NC2CCCC2)cc1 has what recorded inhibition of disassembly?
// result 1.94

// query Can you check O=C(C(NS(=O)(=O)c1cccc2nsnc12)c1ccccc1)N1CCN(c2ccccn2)CC1 (centres undefined) next?
// result 0.34

// query Can you check CCOC(=O)C1CCCN(C(=O)Cn2ncc3c(=O)oc4ccc(C)cc4c32)C1 (centres undefined) next?
// result -1.55

// query Can you check Cc1nc2ccc(S(=O)(=O)NC(C(=O)N3CCCCCC3)C(C)C)cc2s1 (centres undefined) next?
// result 0

// query Can you check CC1CCCN(C(=O)c2ccc3c(c2)C(=O)N(CCC2=CCCCC2)C3=O)C1 (centres undefined) next?
// result -0.2

// query Can you check Cc1ccccc1C(=O)NCCN=C1NS(=O)(=O)c2ccccc21 next?
// result -0.63

// query Can you check O=C(O)c1ccc(NC(=O)c2cccs2)cc1 next?
// result -9.2

// query Can you check Cc1ccccc1N1CC(c2nc3ccccc3[nH]2)CC1=O (centres undefined) next?
// result 2.43
